# IC50 per record follows
Molecular target: TNF-α (Homo sapiens)
Construct: purchased R&D 210-TA-020/CF
Assay: TNF-α Induced HEK Blue Cellular Assay (secreted alkaline phosphatase expression, QUANTI-Blue)
Format: cell-based
Conditions: IC50 value, HEK Blue TNFα reporter cells; TNF-α 100 μg/ml; 24 hrs at 37° C.; inhibition of secreted alkaline phosphatase

compound | target under test | IC50
[2H]C([2H])([2H])N1C(=O)c2cccc(OC(F)F)c2[C@H]2C[C@@H]1c1nc3ccc(C#CCNC4COC4)cc3n12 [Example 242] | TNF-α (Homo sapiens) | < 100 nM
[2H]C([2H])([2H])N1C(=O)c2cccc(OC(F)F)c2[C@H]2C[C@@H]1c1nc3ccc(C#CC(=O)OCC)cc3n12 [Example 40] | TNF-α (Homo sapiens) | < 100 nM
[2H]C([2H])([2H])N1C(=O)c2cccc(OC(F)F)c2[C@H]2C[C@@H]1c1nc3ccc(C#CC4CN(CC(F)F)C4)cc3n12 [Example 198] | TNF-α (Homo sapiens) | 10000 to 30000 nM
[2H]C([2H])([2H])N1C(=O)c2cccc(OC(F)F)c2[C@H]2C[C@@H]1c1nc3ccc(C#CCC)cc3n12 [Example 84] | TNF-α (Homo sapiens) | < 100 nM
[2H]C([2H])([2H])N1C(=O)c2cccc(OC(F)F)c2[C@H]2C[C@@H]1c1nc3ccc(C#CC4CN(C(C)=O)C4)cc3n12 [Example 120] | TNF-α (Homo sapiens) | < 100 nM
[2H]C([2H])([2H])N1C(=O)c2cccc(OC(F)F)c2[C@H]2C[C@@H]1c1nc3ccc(C#CCOC4CCC4)cc3n12 [Example 176] | TNF-α (Homo sapiens) | 100 to 1000 nM

----------
Molecular target: TNF-α (Homo sapiens, UniProt P01375)
Construct: purchased R&D 210-TA-020/CF
Sequence (P01375 77-233 limits assumed): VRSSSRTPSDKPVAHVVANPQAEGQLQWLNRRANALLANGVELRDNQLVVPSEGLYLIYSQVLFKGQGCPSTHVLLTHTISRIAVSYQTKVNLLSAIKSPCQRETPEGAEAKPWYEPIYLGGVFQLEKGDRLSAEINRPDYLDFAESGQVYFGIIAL
Assay: TNF-α Induced HEK Blue Cellular Assay (secreted alkaline phosphatase expression, QUANTI-Blue)
Type: cell-based
Conditions: HEK Blue TNFα reporter cells; TNF-α 100 μg/ml; 24 hrs at 37° C.; inhibition of secreted alkaline phosphatase; read-out: IC50 value
pIC50: −log10 of the molar value.
readout type: pIC50

compound | readout type | reported value
[2H]C([2H])([2H])N1C(=O)c2cccc(OC(F)F)c2[C@H]2C[C@@H]1c1nc3ccc(C#CC4CCCNC4)cc3n12 (stereo partly shown) | pIC50 | > 7.00
[2H]C([2H])([2H])N1C(=O)c2cccc(OC(F)F)c2[C@H]2C[C@@H]1c1nc3ccc(C#CC(O)CC(C)(C)O)cc3n12 (single isomer, unassigned) [Example 222] | pIC50 | > 7.00
[2H]C([2H])([2H])N1C(=O)c2cccc(OC(F)F)c2[C@H]2C[C@@H]1c1nc3ccc(C#Cc4nnc(NC(=O)OC(C)(C)C)s4)cc3n12 | pIC50 | > 7.00
[2H]C([2H])([2H])N1C(=O)c2cccc(OC(F)F)c2[C@H]2C[C@@H]1c1nc3ccc(C#CC4(C)CN(S(C)(=O)=O)C4)cc3n12 | pIC50 | > 7.00
[2H]C([2H])([2H])N1C(=O)c2cccc(OC(F)F)c2[C@H]2C[C@@H]1c1nc3ccc(C#CC4CCN(S(C)(=O)=O)CC4)cc3n12 | pIC50 | > 7.00
[2H]C([2H])([2H])N1C(=O)c2cccc(OC(F)F)c2[C@H]2C[C@@H]1c1nc3ccc(C#CC(O)CC(F)(F)F)cc3n12 (stereo partly shown) | pIC50 | > 7.00
[2H]C([2H])([2H])N1C(=O)c2cccc(OC(F)F)c2[C@H]2C[C@@H]1c1nc3ccc(C#CCO)cc3n12 | pIC50 | 6.00 to 7.00
[2H]C([2H])([2H])N1C(=O)c2cccc(OC(F)F)c2[C@H]2C[C@@H]1c1nc3ccc(CCCCO)cc3n12 | pIC50 | > 7.00
[2H]C([2H])([2H])N1C(=O)c2cccc(OC(F)F)c2[C@H]2C[C@@H]1c1nc3ccc(C#C[C@H](C)N)cc3n12 | pIC50 | > 7.00
[2H]C([2H])([2H])N1C(=O)c2cccc(OC(F)F)c2[C@H]2C[C@@H]1c1nc3ccc(C#Cc4nncn4C)cc3n12 | pIC50 | 5.00 to 6.00
[2H]C([2H])([2H])N1C(=O)c2cccc(OC(F)F)c2[C@H]2C[C@@H]1c1nc3ccc(C#CC)c(F)c3n12 | pIC50 | > 7.00
[2H]C([2H])([2H])N1C(=O)c2cccc(OC(F)F)c2[C@H]2C[C@@H]1c1nc3ccc(C#CC[Si](C)(C)C)cc3n12 | pIC50 | > 7.00
[2H]C([2H])([2H])N1C(=O)c2cccc(OC(F)F)c2[C@H]2C[C@@H]1c1nc3ccc(C#CC4(O)CN(C5COC5)C4)cc3n12 | pIC50 | > 7.00
[2H]C([2H])([2H])N1C(=O)c2cccc(OC(F)F)c2[C@H]2C[C@@H]1c1nc3ccc(C#Cc4cnn(C)c4C#N)cc3n12 | pIC50 | > 7.00
[2H]C([2H])([2H])N1C(=O)c2cccc(OC(F)F)c2[C@H]2C[C@@H]1c1nc3ccc(C#CC4CN(C5COC5)C4)cc3n12 | pIC50 | > 7.00
[2H]C([2H])([2H])N1C(=O)c2cccc(OC(F)F)c2[C@H]2C[C@@H]1c1nc3ccc(C#Cc4cnc(C(C)(C)O)nc4)cc3n12 | pIC50 | > 7.00
[2H]C([2H])([2H])N1C(=O)c2cccc(OC(F)F)c2[C@H]2C[C@@H]1c1nc3ccc(C#CC4CC4(F)F)cc3n12 (stereo partly shown) | pIC50 | 6.00 to 7.00
[2H]C([2H])([2H])N1C(=O)c2cccc(OC(F)F)c2[C@H]2C[C@@H]1c1nc3ccc(C#CCN(C)C)cc3n12 | pIC50 | 6.00 to 7.00
[2H]C([2H])([2H])N1C(=O)c2cccc(OC(F)F)c2[C@H]2C[C@@H]1c1nc3ccc(C#C[C@@H](C)O)cc3n12 | pIC50 | 4.52 to 5.00
[2H]C([2H])([2H])N1C(=O)c2cccc(OC(F)F)c2[C@H]2C[C@@H]1c1nc3ccc(C#Cc4cncc(F)c4)cc3n12 | pIC50 | > 7.00
[2H]C([2H])([2H])N1C(=O)c2cccc(OC(F)F)c2[C@H]2C[C@@H]1c1nc3ccc(C#Cc4ccc(P(C)(C)=O)cc4)cc3n12 | pIC50 | > 7.00
[2H]C([2H])([2H])N1C(=O)c2cccc(OC(F)F)c2[C@H]2C[C@@H]1c1nc3ccc(C#CCCN4CCC(F)(F)C4)cc3n12 | pIC50 | > 7.00
[2H]C([2H])([2H])N1C(=O)c2cccc(OC(F)F)c2[C@H]2C[C@@H]1c1nc3ccc(C#C[C@@H](C)COC)cc3n12 | pIC50 | > 7.00
[2H]C([2H])([2H])N1C(=O)c2cccc(OC(F)F)c2[C@H]2C[C@@H]1c1nc3ccc(C#CC4CCN(C)CC4)cc3n12 | pIC50 | 6.00 to 7.00
[2H]C([2H])([2H])N1C(=O)c2cccc(OC(F)F)c2[C@H]2C[C@@H]1c1nc3ccc(C#CC4CCCN(C(C)=O)C4)cc3n12 (stereo partly shown) | pIC50 | > 7.00

----------
Biological target: TNF-α (Homo sapiens, UniProt P01375)
Construct: purchased R&D 210-TA-020/CF
Assay: TNF-α Induced HEK Blue Cellular Assay (secreted alkaline phosphatase expression, QUANTI-Blue)
Format: cell-based
Conditions: HEK Blue TNFα reporter cells; TNF-α 100 μg/ml; 24 hrs at 37° C.; inhibition of secreted alkaline phosphatase; read-out: IC50 value
pIC50: −log10 of the molar value.
# pIC50 per record follows

compound | pIC50
[2H]C([2H])([2H])N1C(=O)c2cccc(OC(F)F)c2[C@H]2C[C@@H]1c1nc3ccc(C#CC4(O)CCOCC4)cc3n12 | > 7.00
[2H]C([2H])([2H])N1C(=O)c2cccc(OC(F)F)c2[C@H]2C[C@@H]1c1nc3ccc(C#CC4CN(C(=O)C5(O)CC5)C4)cc3n12 | > 7.00
[2H]C([2H])([2H])N1C(=O)c2cccc(OC(F)F)c2[C@H]2C[C@@H]1c1nc3ccc(C#CCNC(C)(C)C)cc3n12 | 4.52 to 5.00
[2H]C([2H])([2H])N1C(=O)c2cccc(OC(F)F)c2[C@H]2C[C@@H]1c1nc3ccc(C#CCCl)cc3n12 | > 7.00
O=C1N[C@@H]2C[C@H](c3c(OC(F)F)cccc31)n1c2nc2ccc(C#Cc3cncnc3)cc21 | > 7.00
[2H]C([2H])([2H])N1C(=O)c2cccc(OC(F)F)c2[C@H]2C[C@@H]1c1nc3ccc(C#CC4(CO)CC4)cc3n12 | 6.00 to 7.00
[2H]C([2H])([2H])N1C(=O)c2cccc(OC(F)F)c2[C@H]2C[C@@H]1c1nc3ccc(C#CC(O)CC)cc3n12 (single isomer, unassigned) [Example 209] | 4.52 to 5.00
Cn1cc(C#Cc2ccc3nc4n(c3c2)[C@@H]2C[C@H]4NC(=O)c3cccc(OC(F)F)c32)cn1 | > 7.00
[2H]C([2H])([2H])N1C(=O)c2cccc(OC(F)F)c2[C@H]2C[C@@H]1c1nc3ccc(C#CC4(C)CCN(C(=O)C5(C)CC5)C4)cc3n12 (some centres unmarked) | 6.00 to 7.00
[2H]C([2H])([2H])N1C(=O)c2cccc(OC(F)F)c2[C@H]2C[C@@H]1c1nc3c(F)cc(C#CC4CC4)cc3n12 | > 7.00
[2H]C([2H])([2H])N1C(=O)c2cccc(OC(F)F)c2[C@H]2C[C@@H]1c1nc3ccc(C#CCC(C)(C)O)cc3n12 | 4.52 to 5.00
[2H]C([2H])([2H])N1C(=O)c2cccc(OC(F)F)c2[C@H]2C[C@@H]1c1nc3ccc(C#CC4(F)CN(C5COC5)C4)cc3n12 | > 7.00
[2H]C([2H])([2H])N1C(=O)c2cccc(OC(F)F)c2[C@H]2C[C@@H]1c1nc3ccc(C#CCCCC)cc3n12 | > 7.00
[2H]C([2H])([2H])N1C(=O)c2cccc(OC(F)F)c2[C@H]2C[C@@H]1c1nc3ccc(C#CCC(C)OC)cc3n12 (single isomer, unassigned) [Example 149] | > 7.00
[2H]C([2H])([2H])N1C(=O)c2cccc(OC(F)F)c2[C@H]2C[C@@H]1c1nc3ccc(C#Cc4cnc(NC(C)=O)nc4)cc3n12 | > 7.00
[2H]C([2H])([2H])N1C(=O)c2cccc(OC(F)F)c2[C@H]2C[C@@H]1c1nc3ccc(C#CC4(C)CN(C(=O)C5(O)CC5)C4)cc3n12 | > 7.00
[2H]C([2H])([2H])N1C(=O)c2cccc(OC(F)F)c2[C@H]2C[C@@H]1c1nc3ccc(C#Cc4ncns4)cc3n12 | > 7.00
[2H]C([2H])([2H])N1C(=O)c2cccc(OC(F)F)c2[C@H]2C[C@@H]1c1nc3ccc(C#CC4(C)CN(C(=O)C5CC5)C4)cc3n12 | > 7.00
[2H]C([2H])([2H])N1C(=O)c2cccc(OC(F)F)c2[C@H]2C[C@@H]1c1nc3ccc(C#C[C@H](C)NCC)cc3n12 | 4.52 to 5.00
[2H]C([2H])([2H])N1C(=O)c2cccc(OC(F)F)c2[C@H]2C[C@@H]1c1nc3ccc(C#Cc4cncs4)cc3n12 | > 7.00
